Measured values drawn from ChEMBL document CHEMBL3885861 for this set.

- Organism: Rattus norvegicus
- RUN DESCRIPTION: Open TG-GATES - Regimen: Daily Repeat
- Type: toxicity, organism-based, Sprague-Dawley
- Parameters: regimen Daily Repeat, gender Male, age 6 weeks
- MEASUREMENT CONTEXT: in vivo, po, 300 mg/kg, […], tissue Plasma, route gavage, dose level Middle, time 7 day
Recorded K for the following compounds
Output should be the measured figure followed by the unit it is expressed in.

{"COMPOUND": "CCOc1ccc(NC(=O)CC(C)O)cc1 (centres undefined)", "RECORDED RESULT": "4.2 meq/L"}
{"COMPOUND": "CCOC(=O)CCC(=O)O[C@H]1[C@H](O[C@@H]2[C@@H](C)[C@H](O[C@H]3C[C@@](C)(OC)[C@@H](O)[C@H](C)O3)[C@@H](C)C(=O)O[C@H](CC)[C@@](C)(O)[C@H](O)[C@@H](C)C(=O)[C@H](C)C[C@@]2(C)O)O[C@H](C)C[C@@H]1N(C)C [ERYTHROMYCIN ETHYLSUCCINATE]", "RECORDED RESULT": "4.1 meq/L"}
{"COMPOUND": "COc1ccc2[nH]c([S+]([O-])Cc3ncc(C)c(OC)c3C)nc2c1 (centres undefined)", "RECORDED RESULT": "3.8 meq/L"}

Then this compound:
Write down K measured for item COC1=CC(=O)C[C@@H](C)[C@]12Oc1c(Cl)c(OC)cc(OC)c1C2=O
3.7 meq/L
